These measurements were taken from patent US5723616A.

measurementNotes: solubility of the sulfonamide in various mixtures of toluene and n-PrOH, determined by HPLC assay
Assay type: physicochemical
cond: 20% toluene in n-proh, organic solvent or mixture; read-out: solubility of 1
resultType: solubility

molecule="CS(=O)(=O)N1CC2(CCN(C(=O)OCc3ccccc3)CC2)c2ccccc21 [Compound 1, CBZ-Spiroindoline-methanesulfonamide]" resulttype=solubility measuredvalue="7510 µg/mL"

* * *

measurementNotes: solubility of the sulfonamide in various mixtures of toluene and n-PrOH, determined by HPLC assay
Format: physicochemical
cond: organic solvent or mixture; 0% toluene in n-PrOH; read-out: solubility of 1
resultType: solubility (µg/mL)

compound="CS(=O)(=O)N1CC2(CCN(C(=O)OCc3ccccc3)CC2)c2ccccc21 [Compound 1, CBZ-Spiroindoline-methanesulfonamide]" displayunit=µg/mL measuredvalue=2360

* * *

measurementNotes: solubility of the sulfonamide in various mixtures of toluene and n-PrOH, determined by HPLC assay
Assay type: physicochemical
cond: 25% toluene in n-proh, organic solvent or mixture; read-out: solubility of 1
resultType: solubility (mg/mL)

molecule="CS(=O)(=O)N1CC2(CCN(C(=O)OCc3ccccc3)CC2)c2ccccc21 [Compound 1, CBZ-Spiroindoline-methanesulfonamide]" resulttype=solubility measuredvalue=10.3

* * *

measurementNotes: solubility of the sulfonamide in various mixtures of toluene and n-PrOH, determined by HPLC assay
Assay type: physicochemical
cond: 5% toluene in n-proh, organic solvent or mixture; read-out: solubility of 1
Procedure: The temperature of both the head and pot rose from 94° C. to 98° C. during the solvent switch. Toluene and n-PrOH form an azeotrope boiling at 97.2° C. composed of 47.5% toluene and 52.5% n-PrOH. The mixture was allowed to cool gradually to 20° C. over 3h and aged for 12 h. […] The solubility of the sulfonamide in various mixtures of toluene and n-PrOH has been determined by HPLC assay: […]
resultType: solubility (µg/mL)

compound="CS(=O)(=O)N1CC2(CCN(C(=O)OCc3ccccc3)CC2)c2ccccc21 [Compound 1, CBZ-Spiroindoline-methanesulfonamide]" measuredvalue=3020

* * *

measurementNotes: solubility of the sulfonamide in various mixtures of toluene and n-PrOH, determined by HPLC assay
Format: physicochemical
cond: 10% toluene in n-proh, organic solvent or mixture; read-out: solubility of 1
resultType: solubility (µg/mL)

compound="CS(=O)(=O)N1CC2(CCN(C(=O)OCc3ccccc3)CC2)c2ccccc21 [Compound 1, CBZ-Spiroindoline-methanesulfonamide]" measuredvalue=4230
